Please go through the items and note down their half-life.
# Test system: human liver microsomes, metabolic stability half-life
# Test Description: NCATS Human Liver Microsomal (HLM) Stability Profiling
# Condition Set: higher = more stable; screened at 1 µM (by protocol)
Answers are plain numbers, in min.

| Compound | Measurement Unit | Recorded Number |
| --- | --- | --- |
| COc1cc2c(cc1OC)CN(C(=O)[C@@H](NCc1ccncc1)C(C)(C)C)CC2 | min | 2.24 |

Please turn your attention to the following entry.
The measured half-life associated with CN1c2cc(C(=O)Nc3ccc(S(N)(=O)=O)cc3)ccc2C(=O)N2CCCCC21 (stereo not given) reads 32.8

* * *

# Tested on: human liver microsomes, metabolic stability half-life
# Test Description: NCATS Human Liver Microsomal (HLM) Stability Profiling
# Condition Set: higher = more stable; screened at 1 µM (by protocol)
Recorded Endpoint: half-life

Sample answers from the record:
| Compound | half-life |
| --- | --- |
| C[C@]12CC[C@H]3[C@@H](CCC4=CC(=O)CC[C@@]43C)[C@@H]1CC[C@@H]2C(=O)O | > 120 min |
| Cc1cc(C)cc(NC(=O)Cc2ccc(OC(C)(C)C(=O)O)cc2)c1 | > 120 min |
| CCCc1nc(C(C)(C)O)c(C(=O)O)n1Cc1ccc(-c2ccccc2-c2nn[nH]n2)cc1 | > 120 min |

Hi team, please reply with half-life for each item in this list.
1. O=C(O)c1ccc(CN2CCC(CN[C@@H]3C[C@H]3c3ccccc3)CC2)cc1
2. CCN(CC)C(=O)c1cccc(C)c1
3. C[C@H]1COc2c(C3(N)CC3)c(F)cc3c(=O)c(C(=O)O)cn1c23
4. COc1cccc(C(=O)Nc2nc(-c3nnn(-c4ccccc4C(F)(F)F)c3C)ns2)c1

Result:
1. > 120 min
2. > 120 min
3. > 120 min
4. > 120 min

Hi team, please reply with half-life for each item in this list.
1. N[C@@H](CC(=O)Nc1ccc(Oc2cc(F)c(F)cc2Br)cc1)C(=O)O
2. [O-][n+]1cccc(CO)c1
3. COc1cc(C(=S)N2CCOCC2)cc(OC)c1OC
4. O=C(N/N=C/C1C=CC([N+](=O)[O-])O1)c1ccc(O)cc1 (stereo not given)

Result:
["> 120 min", "> 120 min", "> 120 min", "> 120 min"]

Hi team, please reply with half-life for each item in this list.
1. CCCCC(=O)OCC(=O)[C@H]1[C@H](C)C[C@H]2[C@@H]3C[C@H](F)C4=CC(=O)C=C[C@]4(C)[C@@]3(F)[C@@H](O)C[C@@]21C
2. CCN(CC)CCOc1ccc2c(c1)C(=O)c1cc(OCCN(CC)CC)ccc1-2

Result:
1: 5.18 min; 2: > 120 min

Hi team, please reply with half-life for each item in this list.
1. COc1ccc2nc([C@H]3CCN(Cc4ccc(C(=O)O)cc4)C3)[nH]c2c1
2. C=CCc1ccccc1OCC(O)CNC(C)C (stereo not given)
3. COC(=O)[C@@H]1[C@H]2C[C@H]3c4[nH]c5ccccc5c4CCN3C[C@@H]2CC[C@@H]1O
4. CCOCCn1c(C2CCN(CCc3ccc(C(C)(C)C(=O)O)cc3)CC2)nc2ccccc21
5. CN1CCN(C(=O)Cc2cccn2-c2ccc(F)cc2)CC1
6. CCCOc1cc(N)ccc1C(=O)OCCN(CC)CC
7. Cc1cc(CN)cc(C)c1NC(=O)c1ccc(-c2cc(Cl)ccc2Cl)o1

Result:
> 120 min
22 min
83.9 min
> 120 min
> 120 min
70.3 min
> 120 min

* * *

# Test system: human liver microsomes, metabolic stability half-life
# Test Description: NCATS Human Liver Microsomal (HLM) Stability Profiling
# Condition Set: higher = more stable; screened at 1 µM (by protocol)
Recorded Endpoint: half-life (min)
Answers are plain numbers, in min.

Sample answers from the record:
| Compound | Measurement Unit | half-life |
| --- | --- | --- |
| CCOc1ncc(S(=O)(=O)N2CCN(CC)CC2)cc1-c1nc2c(CC)n(CCOC)nc2c(=O)[nH]1 | min | 76.2 |
| Cc1ccc(-c2cc3ncc(C(=O)c4cc([N+](=O)[O-])ccc4O)cn3n2)cc1 | min | 4.91 |
| Cc1cnc(Nc2cccc(CN3CCOCC3)c2)nc1Nc1cccc(S(=O)(=O)NC(C)(C)C)c1 | min | 19.5 |
| O=C(CCCCCn1c(=O)c2sccc2n(CC(=O)Nc2cccc(Cl)c2)c1=O)NCc1ccc2c(c1)OCO2 | min | 9.36 |
| CC1(C)O[C@H]2CC(=O)OC[C@]23[C@H]2CC[C@@]4(C)[C@H](c5ccoc5)OC(=O)[C@H]5O[C@]54[C@]2(C)C(=O)C[C@@H]13 | min | 13.4 |
| O=C1CN2CCOC2(c2ccccc2Cl)c2cc(Cl)ccc2N1 (configuration not stated) | min | 4.56 |
| CCCCCOc1cc2c(cc1-c1cc(/C=C/C(=O)O)ccc1O)C(C)(C)CCC2(C)C | min | 10.8 |
| COc1ccc(-c2nc3ccccc3c(=O)n2Cc2ccco2)cc1COc1ccc(NC(C)=O)cc1 | min | 1.85 |

Hi team, please reply with half-life for each item in this list.
1. CC(=O)[C@H]1CC[C@H]2C3CC=C4C[C@@H](O)CC[C@]4(C)C3CC[C@]12C (some centres not stated)
2. COC(=O)C1=C(C)NC(C)=C(C(=O)O[C@@H]2CCCN(Cc3ccccc3)C2)[C@@H]1c1cccc([N+](=O)[O-])c1
3. Cc1ccc(C(C)(O)c2nc3ccccc3s2)c(C)c1 (configuration not stated)
4. Oc1ccc(-c2cnc3ccc(NCc4ccco4)nn23)cc1

Result:
106
1.93
4.22
9.45

Hi team, please reply with half-life for each item in this list.
1. O=S(c1cc(Cl)cc(Cl)c1O)c1cc(Cl)cc(Cl)c1O
2. O=C1c2ccccc2C(=O)c2c(O)c(O)cc(O)c21
3. CCc1cc2cc(OC)c(OC)cc2c(Cc2ccccc2)n1
4. COc1cc(NC(=O)Nc2cccc(CNC(=O)O[C@H]3CCOC3)c2)ccc1-c1cnco1
5. COc1cc(C(=O)OC(COCCC(C)C)CN2CCOCC2)cc(OC)c1OC (configuration not stated)
6. CCOC(=O)[C@H](CCc1ccccc1)N[C@H]1CCCN2CCC[C@@H](C(=O)O)N2C1=O

Result:
99.8
59.8
8.36
27.7
2.43
16.7

* * *

# Tested on: human liver microsomes, metabolic stability half-life
# Test Description: NCATS Human Liver Microsomal (HLM) Stability Profiling
# Condition Set: higher = more stable; screened at 1 µM (by protocol)
Please go through the items and note down their half-life.

| Compound | half-life |
| --- | --- |
| COc1cc2cc(CN3CCC(N(C)C)C3)c(-c3cccc(Cl)c3)nc2cc1OC (stereo not drawn) | > 2 h |
| OC1(c2ccc(Cl)cc2)CCNCC1 | > 2 h |

Please turn your attention to the following entry.
The measured half-life associated with COc1ccc(OC)c([C@H](O)[C@H](C)N)c1 reads > 2 h

* * *

Please go through the items and note down their half-life.
# Test system: human liver microsomes, metabolic stability half-life
# Test Description: NCATS Human Liver Microsomal (HLM) Stability Profiling
# Condition Set: higher = more stable; screened at 1 µM (by protocol)

Sample answers from the record:
| Compound | Recorded Endpoint | Result |
| --- | --- | --- |
| Oc1cccc(C2NC(=S)Nc3cccc(F)c32)c1 (stereo not drawn) | half-life | > 2 h |
| CC1(C)C(=O)N(c2ccc(C#N)c(C(F)(F)F)c2)C(=S)N1c1ccc(C(N)=O)c(F)c1 | half-life | > 2 h |

The measured half-life associated with CC(=O)N1CCN(c2ccc(O)cc2)CC1 reads > 2 h

* * *

# Test system: human liver microsomes, metabolic stability half-life
# Test Description: NCATS Human Liver Microsomal (HLM) Stability Profiling
# Condition Set: higher = more stable; screened at 1 µM (by protocol)
Recorded Endpoint: half-life (min)
Give bare numbers, in min.

Sample answers from the record:
| Smiles Representation | half-life (min) |
| --- | --- |
| O=C1NC(=Nc2ccccc2F)S/C1=C\c1ccc(C(=O)O)cc1 | 52.4 |
| S=C(NCc1ccc2c(c1)OCO2)N1CCN(c2ncnc3c2oc2ccccc23)CC1 | 18.6 |
| FC(F)c1nc2ccccc2n1-c1nc(N2CCOCC2)nc(N2CCOCC2)n1 | 25.4 |

Hi team, please reply with half-life for each item in this list.
1. CCOc1ccc(NC(=O)Cn2cc(C(=O)c3cccs3)c3ccccc32)cc1
2. COc1ccc(Oc2c(Cl)cnn(-c3cc(C)cc(C)c3)c2=O)cc1

Result:
1: 10.5; 2: 17.4

* * *

# Test system: human liver microsomes, metabolic stability half-life
# Test Description: NCATS Human Liver Microsomal (HLM) Stability Profiling
# Condition Set: higher = more stable; screened at 1 µM (by protocol)
Recorded Endpoint: half-life

| Compound | Result |
| --- | --- |
| NC1CCC(Nc2cc(-c3cccc(NCc4cccc(F)c4)n3)c(Cl)cn2)CC1 (stereo not drawn) | > 2 h |
| C[C@H](N)C(=O)N1CCC(n2nccc2NC(=O)Nc2ccccc2Cl)CC1 | > 2 h |

Please turn your attention to the following entry.
The measured half-life associated with CC(C)(C)NC[C@H](O)COc1cccc2c1CCCC2=O reads > 2 h
